Reference source: PubChem BioAssay AID463204

Test system: S. cerevisiae Mot1-301 ts growth rescue, BacTiter-Glo ATP luminescence
measurement protocol: restored Mot1-301 yeast growth at 38.5C – whole organism, S. cerevisiae, Mot1-301 ts mutant, luminescence, dose retest, SUMOylation pathway inhibitor project, confirmation (AID 463204);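 note: growth at restrictive 38.5 degrees C of Mot1-301 OY566 strain; actives raise luminescence by restoring growth of the ts mutant at high temperature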
Activity calls are given as the source filed them.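 Rule for the calls: active = AC50 no more than ten times the top concentration tested, that is within one log above it; inconclusive = flat curve fit with activity between 30% and 70%, or invalid poor fit; inactive = AC50 beyond ten times the top tested dose.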
reported endpoint: AC50

Reference set (5 entries):
CC(=O)c1ccc(N2CCN(CC(=O)Nc3cc(C)on3)CC2)cc1 = > 42 µM (inactive)
CC(=O)Nc1ccccc1C(=O)C(=O)Nc1ccc(C(=O)NCC2CCCO2)cc1 (stereo not given) = > 42 µM (inactive)
Cc1sc(NC(=O)c2ccc(F)cc2)c(CN2CCCCCC2)c1C = > 42 µM (inactive)
Cc1ccc(N(CC(=O)NC2CCCC2)C(=O)CCC(=O)Nc2ccccn2)cc1C = > 42 µM (inactive)
O=C1C2CC=C(Cl)CC2C(=O)N1c1ncn[nH]1 (stereo not given) = > 42 µM (inactive)

Please tell me: AC50 of COc1ccc(C2CC3(CC(C)(C)NC(=S)N3)Oc3cc(O)cc(C)c32)cc1 (stereo not given) , system S. cerevisiae Mot1-301 ts growth rescue, BacTiter-Glo ATP luminescence?
> 42 µM (inactive)

Field: AC50 (S. cerevisiae Mot1-301 ts growth rescue, BacTiter-Glo ATP luminescence). Entry: "COc1ccccc1-c1nc2ccccc2nc1-c1ccccc1OC"
> 42 µM (inactive)

Notebook: pull reported AC50 for S. cerevisiae Mot1-301 ts growth rescue, BacTiter-Glo ATP luminescence, entry CC1CCCC(N2C(=O)NC(NC(=O)c3ccco3)(C(F)(F)F)C2=O)C1C (stereo not given)
> 42 µM (inactive)

Requested read-out AC50, target or system S. cerevisiae Mot1-301 ts growth rescue, BacTiter-Glo ATP luminescence, entry "Cc1nn(C(C)(C)C)c(OC(=O)c2ccc3c(c2)OCO3)c1S(=O)(=O)c1ccccc1"
> 42 µM (inactive)

Which AC50 is reported with S. cerevisiae Mot1-301 ts growth rescue, BacTiter-Glo ATP luminescence for this entry: "COCC(=O)Nc1c(C(=O)Nc2ccc3c(c2)OCO3)oc2ccccc12" ?
> 42 µM (inactive)
